Data origin, for the record: the supplement of paper PMC10883282

# Test system: KHOS-NP
# ASSAY_PROTOCOL: relative viability vs DMSO control (72 h) (fraction); higher = more viable cells
# RUN_CONDITIONS: 0.00152 µM
Below, each entry is listed with its recorded relative viability.
Please reply with the number alone, leaving off any unit.

Take a look at these entries with their results.
MOLECULE	relative viability
CO[C@H]1C[C@@H]2CC[C@@H](C)[C@@](O)(O2)C(=O)C(=O)N2CCCC[C@H]2C(=O)O[C@H]([C@H](C)C[C@@H]2CC[C@@H](OC(=O)C(C)(CO)CO)[C@H](OC)C2)CC(=O)[C@H](C)/C=C(\C)[C@@H](O)[C@@H](OC)C(=O)[C@H](C)C[C@H](C)/C=C/C=C/C=C/1C	1.03
Cn1cnc2c(F)c(Nc3ccc(Br)cc3Cl)c(C(=O)NOCCO)cc21	1.04
CS(=O)(=O)CCNCc1ccc(-c2ccc3ncnc(Nc4ccc(OCc5cccc(F)c5)c(Cl)c4)c3c2)o1	1.05
COC(=O)c1ccc2c(c1)NC(=O)/C2=C(\Nc1ccc(N(C)C(=O)CN2CCN(C)CC2)cc1)c1ccccc1	1.06
Cc1c2oc3c(C)ccc(C(=O)N[C@@H]4C(=O)N[C@H](C(C)C)C(=O)N5CCC[C@H]5C(=O)N(C)CC(=O)N(C)[C@@H](C(C)C)C(=O)O[C@@H]4C)c3nc-2c(C(=O)N[C@@H]2C(=O)N[C@H](C(C)C)C(=O)N3CCC[C@H]3C(=O)N(C)CC(=O)N(C)[C@@H](C(C)C)C(=O)O[C@@H]2C)c(N)c1=O	1.08

Inquiry: Please list relative viability recorded for the molecule CN(C)C/C=C/C(=O)Nc1cc2c(Nc3ccc(F)c(Cl)c3)ncnc2cc1O[C@H]1CCOC1
Reply text: 1.07

Inquiry: Please list relative viability recorded for the molecule CCOc1cc2ncc(C#N)c(Nc3ccc(OCc4ccccn4)c(Cl)c3)c2cc1NC(=O)/C=C/CN(C)C
Reply text: 1.02

Inquiry: Please list relative viability recorded for the molecule O=C(/C=C\n1cnc(-c2cc(C(F)(F)F)cc(C(F)(F)F)c2)n1)NNc1cnccn1 [Selinexor]
Reply text: 1.13
